Reported values of melting point for individual entries
Measured Metric: melting point

COc1ccc(C2=NN(c3ccc(OCc4ccccc4)cc3)C(=O)C(C)(C)C2)cc1OC: 137 to 138 °C
COc1ccc(C2=NN(c3ccc(OCC(=O)N4CCOCC4)cc3)C(=O)C(C)(C)C2)cc1OC: 74 to 79 °C
COc1ccc(C2=NN(c3ccc(Br)cc3)C(=O)C(C)(C)C2)cc1OC: 123 to 124 °C
COc1ccc(C2=NN(c3ccc(C(=O)N4CCN(CC(=O)N5CCCC5)CC4)cc3)C(=O)C(C)(C)C2)cc1OC.Cl: 144 to 146 °C

# credit: patent US20080227790A1
